Test system: CCRF-CEM
Method Summary: NCI tumour cell line growth inhibition, 48 h
Activity calls are given as the source filed them. Rule as the data show it: active = GI50 up to about 1.1 µM and inactive = higher. Where a SMILES comes first, the peptide text is derived from it.
Would you mind telling me the reported GI50 of each entry?

Entry NC(=O)C1CCCN1C(=O)C(N)Cc1ccccc1 (stereo not drawn) (H-Phe-Pro-NH2; configuration not given here) , GI50 reported as > 100 µM (inactive)

Record C#CCOCCCC(=O)O . Reported GI50: > 100 µM (inactive)

Record COC(=O)C(=O)C(C(=O)C(=O)Nc1ccccc1OC)c1nc2ccc([N+](=O)[O-])cc2nc1O (configuration not stated) . Reported GI50: > 100 µM (inactive)

The reported value for COc1cccc(-c2nc(N)c(C#N)c3c2CCS(=O)(=O)c2ccc(C)cc2-3)c1 in terms of GI50 is 14.6 µM (inactive)

Per the records, this compound ( NC(=O)c1nnsc1NC=O ) has GI50 equal to > 100 µM (inactive)

Kindly note the recorded GI50 for COc1ccccc1/C=C\c1cnnc2ccccc12 , which is 6.59 µM (inactive)

GI50 for COC(=O)[C@]1(C)C(OC)=CC(=O)C2C1[C@H]1CCC[C@@H]21 (some centres not stated) is > 100 µM (inactive)

---

Tested on: DLD-1
Method Summary: NCI tumour cell line growth inhibition, 48 h
Active and inactive are the calls of the source. Cut-off read from the data, not from the text of the source: active = GI50 up to about 1.1 µM and inactive = higher.
I'd be grateful if you could share measured GI50 for these entries.

Summary line: CC(=O)OCC1OC(n2cccnc2=O)C(OC(C)=O)C1OC(C)=O (stereo not given) , DLD-1, reported GI50 = > 100 µM (inactive)

GET /values?item= CC1(C)CCCC2(C)[C@@H]1CC[C@@]13CC(=O)[C@@](C)(CC[C@@H]21)C3 (stereo not given in full) &system= DLD-1 returns GI50: > 100 µM (inactive)

Entry O=C(CC(=O)c1ccccc1NC1=Cc2ccccc2C(=O)C1=O)C(=O)NC1=C(Cl)C(=O)c2ccccc2C1=O under DLD-1 had GI50 of 2.38 µM (inactive)

Here Cc1ccc(-c2cc(=O)c3cc(C)c(C)c(C(=O)O)c3o2)cc1C was tested on DLD-1, and its GI50 came to > 100 µM (inactive)

DLD-1 data for CN1Nc2ccccc2CC1=O ; its GI50: > 100 µM (inactive)

Short answer on DLD-1 for CCOc1ccccc1NC(=O)CSc1nnc(Cc2ccccc2)o1 , GI50: 23.4 µM (inactive)

Per the reported DLD-1 data, O=C(COc1ccc(Br)cc1Br)N1N=C(c2ccc([N+](=O)[O-])o2)CC1(O)c1ccccc1 (stereo not given) has GI50 of 10.7 µM (inactive)

With DLD-1 as the test system, O=c1sc(-c2nc3ccccc3[nH]2)c(/N=C/c2ccccc2)n1-c1ccccc1 showed GI50 of > 100 µM (inactive)

Assay DLD-1, sample Brc1ccc2c(c1)C1C(CO2)C(c2ccccc2)=NN1c1ccccc1 (stereo not given) , GI50 read: > 100 µM (inactive)

Query Cc1cc2c(c(C(N)=O)c1C)-c1cccc(F)c1C2=O on DLD-1; GI50 returned: > 100 µM (inactive)

---

Consider the following compounds; for each one, report its GI50.
Tested on: SK-MEL-28
Method Summary: NCI tumour cell line growth inhibition, 48 h
Calls of active or inactive are those of the source. No stated cut-off is given here; in the data, active = GI50 up to about 1.1 µM and inactive = higher.

Record COP1(=O)Oc2ccccc2C(=O)C(C(F)(F)F)(C(F)(F)F)O1 (stereo not drawn) . Reported GI50: > 100 µM (inactive)

For this compound ( N=c1n(CC(=O)NC23CC4CC(CC(C4)C2)C3)c2ccccc2n1CC(=O)NC12CC3CC(CC(C3)C1)C2 ), measured GI50 is 1.79 µM (inactive)

The reported value for COC1=C(N2CC2)C(=O)c2nc3n(c2C1=O)CCC3 in terms of GI50 is 4.01 µM (inactive)

Per the records, this compound ( CC1(C)N[PH]2(Nc3ccccc3O2)OC1=O ) has GI50 equal to 86.9 µM (inactive)

Form field GI50, entry COC(=O)c1ccc(Oc2nc3ccccc3nc2-c2cccs2)cc1 : > 100 µM (inactive)

COc1ccc(NC(=O)C2C(=O)N(c3ccc(OC)cc3)C(=O)/C2=N\NC(N)=O)cc1 (stereo not drawn) has a reported GI50 of 59.7 µM (inactive)

Note to self: GI50 recorded for CN(C)c1ccc(/C=C2\CCCCCC2=O)cc1 was > 100 µM (inactive)

Record summary for NC(=O)c1nnsc1NC=O : reported GI50 = > 100 µM (inactive)

Value of measured GI50 for the entry CCOC(=O)c1nnc2c(C(=O)OCC)c3ccccc3n2c1N : 5.85 µM (inactive)

// field: GI50; key: Cc1ccc(S(=O)(=O)NNC(=O)c2sc(-c3nc(C)c(C(=O)NNS(=O)(=O)c4ccc(C)cc4)s3)nc2C)cc1 ; value = > 100 µM (inactive)

// sample CCOC(=O)C(C(=S)Nc1ccccc1)c1nn2c(=O)cc(C)nc2s1 (stereo not drawn) , its GI50 was 21.1 µM (inactive)

compound CCN1C(=O)C(=C/C=C/c2ccc(N(CC)CC)cc2)C(=O)N(CC)C1=S , GI50 observed: > 100 µM (inactive)

Reported GI50 for O=C(O)CCCSc1ccccc1 was > 100 µM (inactive)

Field GI50 (entry CN(C)CCN(C)CCC(=O)/C=C/c1ccccc1 ) reads 20.1 µM (inactive)

Memo: O=C(O)c1nnsc1COCc1ccccc1 , reported GI50: > 100 µM (inactive)

get_value(item= Cc1cc2c(C)cc(=O)[nH]c2cc1N , readout=GI50) returns > 100 µM (inactive)

The recorded GI50 for entry CC1C[C@@]2(c3ccccc3)C(=O)CCC[C@H]2N1 (stereo partly drawn) equals > 100 µM (inactive)

Query CNc1ccccc1S(=O)(=O)c1ccccc1[N+](=O)[O-] yields GI50 of 91 µM (inactive)

The compound CCSCCC(N)C(=O)O (stereo not drawn) showed GI50 equal to > 100 µM (inactive)

compound CCC(C)C1=C(O)[N+]2([O-])Oc3ccc(-c4c(O)c(O)c(-c5ccc(OC(C)=O)cc5)c(OC(C)=O)c4OC(C)=O)cc3OC2(C(C)CC)C(=O)N1O (stereo not drawn) , GI50 observed: 46.1 µM (inactive)

Record CCN(CC)CCC(=O)c1ccc(Oc2ccc(F)cc2)cc1 . Reported GI50: 16.4 µM (inactive)

# compound O=C(O)CCCc1nc2c(n1Cc1ccccc1)C(=O)c1ccccc1C2=O ; its GI50 = > 100 µM (inactive)

Reported GI50 ( c1ccc(C2=C(c3ccccc3)P(c3ccccc3)C2)cc1 (stereo not drawn) ) = > 100 µM (inactive)

Hello, the source for this data is ChEMBL document CHEMBL1201862, in case you need it.
